# Measured on: T1, human amylin receptor (calcitonin receptor co-expressed with receptor activity modifying protein, RAMP3) (human, UniProt P30988 25-474; O60896 24-148)
# T1 sequence (looked up) 1: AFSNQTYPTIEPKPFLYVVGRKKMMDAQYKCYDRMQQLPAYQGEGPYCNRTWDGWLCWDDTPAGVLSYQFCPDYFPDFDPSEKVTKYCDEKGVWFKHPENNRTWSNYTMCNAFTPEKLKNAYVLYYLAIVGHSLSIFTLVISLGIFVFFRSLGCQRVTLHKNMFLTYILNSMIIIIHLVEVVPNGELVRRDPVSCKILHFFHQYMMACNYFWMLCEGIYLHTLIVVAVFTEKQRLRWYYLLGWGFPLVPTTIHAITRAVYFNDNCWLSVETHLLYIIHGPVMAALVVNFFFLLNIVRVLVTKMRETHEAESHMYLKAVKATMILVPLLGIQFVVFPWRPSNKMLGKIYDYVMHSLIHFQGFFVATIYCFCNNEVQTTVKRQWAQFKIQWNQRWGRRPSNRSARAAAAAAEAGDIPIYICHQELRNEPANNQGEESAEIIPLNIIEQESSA
# T1 sequence (looked up) 2: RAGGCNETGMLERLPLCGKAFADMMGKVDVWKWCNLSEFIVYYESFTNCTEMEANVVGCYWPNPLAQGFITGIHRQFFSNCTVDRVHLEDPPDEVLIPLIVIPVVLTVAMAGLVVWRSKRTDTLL
# Run description: cell-based or functional assay
Numbered stars: 1 amine (or outer) side, 2 acyl side, 3 side chain; on linkers, the order of the positions; unused ones are H or OH. Bridge positions count the residues as written; N and C are the ends. Square brackets hold non-standard residues; d marks the D form. Side chains are listed from the residue outwards. Ends that are not written are not given here. * marks the point of attachment. C20 diacid = O=C(O)CCCCCCCCCCCCCCCCCCC(=O)*; C18 diacid = O=C(O)CCCCCCCCCCCCCCCCC(=O)*; γGlu = O=C(O)[C@H](CCC(=O)[*:2])N[*:1]; αMeF = C[C@](N)(Cc1ccccc1)C(=O)O; αMeS = C[C@](N)(CO)C(=O)O
Outcome measure: Ratio (EC50 hCTR / EC50 hAMYR3)

a. K([γGlu-γGlu-C18 diacid])CNTATCATQRLANFLVHSSNN[αMeF]GPILPPTNVGSNTY-NH2 (disulfide 2-7) [Peptide 13 (SEQ ID NO: 13)]
b. K([γGlu-γGlu-C18 diacid])CNTATCATQRLANFLVHS[αMeS]NNFGPILPPTNVGSNTY-NH2 (disulfide 2-7) [Peptide 22 (SEQ ID NO: 22)]
c. {C20 diacid-γGlu}-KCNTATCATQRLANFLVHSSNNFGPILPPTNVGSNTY-NH2 (disulfide 2-7) [Peptide 112 (SEQ ID NO: 112)]
Lookup: Ranking field: Ratio (EC50 hCTR / EC50 hAMYR3); order: falling. # answer = labels listed in requested order
Found: b, a, c
